settings: in acetone, 293.15 K

Query smiles | solubility (mole fraction)
O=C(O)Cc1c[nH]c2ccccc12 | 2.89e-05

---

settings: in methanol, 313.15 K
Readout: solubility (mole fraction)

Query smiles | Recorded number
O=C(O)Cc1c[nH]c2ccccc12 | 1.67e-05

---

conditions: in ethyl acetate, 313.15 K
Readout: solubility (mole fraction)

Query smiles | Readout | Recorded number
O=C(O)Cc1c[nH]c2ccccc12 | solubility (mole fraction) | 5.13e-05

---

conditions: in DMSO, 323.15 K
Readout: solubility (mole fraction)

Query smiles | Recorded number
O=C(O)Cc1c[nH]c2ccccc12 | 5.48e-05

---

settings: in methanol, 293.15 K

Query smiles | solubility (mole fraction)
O=C(O)Cc1c[nH]c2ccccc12 | 1.17e-05
